Entries and their GI50 values follow.
Tested on: OVCAR-5 ovarian
experimental.protocol: NCI tumour cell line growth inhibition, 48 h

Consider the reported GI50 for these molecules:
>>> experimental_result("COc1ccc2c(c1)c(-c1nc(-c3c[nH]c4ncccc34)cs1)cn2CCCN1CCOCC1")
"2.6 µM"
>>> experimental_result("CCN(CC)Cc1cc(Nc2nc(NC3CCC(N(C)C)CC3)c3ccccc3n2)ccc1OC (centres undefined)")
"5 µM"
>>> experimental_result("CC1(C)OC[C@@H]([C@@]2(CO[Si](c3ccccc3)(c3ccccc3)C(C)(C)C)CC=CC(=O)O2)O1")
"16.7 µM"
>>> experimental_result("Cc1c(C(=N)C(C#N)C#N)c(=N)oc2c1ccc1ccccc12")
"39.5 µM"
>>> experimental_result("CCN1C(=S)N(CC)C2C1NC(=S)N2/N=C/C=C/c1ccccc1OC (centres undefined)")
"0.442 µM"

Measured GI50 of `FC(F)(F)Oc1cccc(-c2cc(NCCCCCCNc3cc(-c4cccc(OC(F)(F)F)c4)nc4ccc(N5CCCC5)cc34)c3cc(N4CCCC4)ccc3n2)c1` : 1.76 µM

Measured GI50 of N#CC1c2ccccc2C=CN1C(=O)CCCl (centres undefined) : 10.3 µM

Measured GI50 of `CCN(CC)CCCNc1ccc(C)c2sc3ccccc3c(=O)c12` : 1.26 µM

Measured GI50 of `O=C1c2cccc(Oc3ccccc3)c2C(=O)c2cccc(Oc3ccccc3)c21` : > 100 µM

###

Entries and their log10 TGI values follow.
Tested on: NCI-H226 lung
experimental.protocol: NCI tumour cell line growth inhibition, 48 h
Quick note: numbers are log10 of TGI, with µM as the unit.

>>> experimental_result("O=C(NCc1ccccc1)c1cc2ccccc2oc1=Nc1cccc(C(F)(F)F)c1")
1.99
>>> experimental_result("OCc1cc2c(cn1)[nH]c1ccc(NCc3ccccc3)cc12")
1.74
>>> experimental_result("C[C@]12CC[C@H]3[C@@H](CCC4=CC(=O)CC[C@@]43C)[C@@H]1CC[C@@H]2c1csc(N)n1")
1.37
>>> experimental_result("COc1cc([C@@H]2c3cc4c(cc3[C@@H](NC(=O)c3ccc(C#N)cc3)C3COC(=O)[C@@H]32)OCO4)cc(OC)c1O (stereo partly drawn)")
-0.29
>>> experimental_result("C#CC[C@@H]1C[C@]2(C)[C@H]3CC[C@@H]4[C@H]5C(C(=C)C)CC[C@]5(C(=O)NCCN(CCN)CCN)CC[C@@]4(C)[C@]3(C)CC[C@H]2C(C)(C)[C@H]1OC(C)=O (stereo partly drawn)")
0.67
>>> experimental_result("O=C1/C(=C/c2ccc(Cl)c(Cl)c2)CN(C(=O)CCN2CCC(=NO)CC2)C/C1=C\\c1ccc(Cl)c(Cl)c1")
0.40
>>> experimental_result("COc1cc2c(N3CCN(C(=O)Nc4ccc(OC(C)C)cc4)CC3)ncnc2cc1OCCCN1CCCCC1")
1.66

// moving on: another record for log10 TGI
Measured log10 TGI of COC(=O)/C=C(/C=C1/C(C#N)=C(N)N(c2ccc(Cl)cc2)C1(C)/C(=C\C(=O)OC)C(=O)OC)C(=O)OC (stereo not drawn) : 1.94

###

Test system: HOP-62 NSCLC
experimental.protocol: NCI tumour cell line growth inhibition, 48 h
quantity.name: TGI

Consider the reported TGI for these compounds:
>>> experimental_result("COc1ccc2ccc3oc(=O)c(C)cc3c2c1")
"> 100 µM"
>>> experimental_result("COc1ccc2c(c1)c(-c1nc(-c3c[nH]c4ncccc34)cs1)cn2CCCN1CCOCC1")
"7.18 µM"
>>> experimental_result("Cc1nc(N)nc(CCC(=O)Nc2cccc(C(F)(F)F)c2)c1-c1ccc(Cl)cc1")
"> 100 µM"
>>> experimental_result("COc1ccc(OC)c(/C=C/c2nc(=S)n(-c3ccc(Cl)cc3)[nH]2)c1")
"> 100 µM"
>>> experimental_result("COc1ccc(OC)c(NCC(=O)n2nc(/C=C\\c3ccc(O)c(OC)c3)cc2/C=C\\c2ccc(O)c(OC)c2)c1")
"13 µM"

Summary line: `N#CNC(N)=NCc1ccccc1` , HOP-62 NSCLC, reported TGI = > 100 µM

Summary line: `O=C(Nc1ccc(N=C=S)cc1Cl)c1cc(Br)cc(Br)c1O` , HOP-62 NSCLC, reported TGI = 84.4 µM

Summary line: `CC1=N/C(=C\c2ccc(/C=C3/N=C(C)OC3=O)cc2)C(=O)O1` , HOP-62 NSCLC, reported TGI = > 100 µM

Summary line: `Cc1ccc2c(-c3ccnc(Nc4ccc5c(c4)OCCO5)n3)c(-c3ccc(C(F)(F)F)cc3)nn2n1` , HOP-62 NSCLC, reported TGI = > 25 µM

Summary line: `O=c1ccc2ccc(S)cc2o1` , HOP-62 NSCLC, reported TGI = > 100 µM

###

Entries and their TGI values follow.
Test system: HCC-2998 colon
experimental.protocol: NCI tumour cell line growth inhibition, 48 h
Give the value in µM but do not write µM after it.

>>> experimental_result("CC(C)Oc1cccc(N2C(n3ccnc3)=Nc3ccncc3S2(=O)=O)c1")
31
>>> experimental_result("Nc1nc2c(c3cnccc13)C(c1ccc(Cl)c(Cl)c1)Cc1cnccc1-2 (stereo unspecified)")
7.37
>>> experimental_result("CCCCCCN(CCCCCC)C(=S)N/N=C(\\C)c1ccccn1")
9.03
>>> experimental_result("CC(=O)c1ccc(Oc2c3ccccc3nc3ccccc23)cc1")
24

Measured TGI of O=C(/C=C/C12c3ccccc3C(c3ccccc31)C1C(=O)NC(=O)C12)c1ccccn1 (stereo unspecified) : 3.51

Measured TGI of `CN(C)CCn1c(=O)c2ccc(NCCCN(C)CCCNc3ccc4c(=O)n(CCN(C)C)c(=O)n5c6ccc(O)cc6c(=O)c3c45)c3c(=O)c4cc(O)ccc4n(c1=O)c23` : 0.173

Measured TGI of `O=c1c2c3c(sc2[nH]c(=S)n1-c1ccccc1)CCCc1ccc([N+](=O)[O-])cc1-3` : 77.3

Measured TGI of `CCCCCCCCCCCCCCCCCCOc1ccccc1CC(=O)NCC[N+]1(C)CCOCC1` : 7.09

Measured TGI of `NC1=CC(=O)c2c(O)ccc(O)c2C1=O` : 24.2

###

System: MCF7 breast
experimental.protocol: NCI tumour cell line growth inhibition, 48 h; in the data active = GI50 below about 0.43 µM; inactive = the rest
API: response.call in YES = active, NO = inactive

>>> class_name("O=C(NCCNCCO)c1ccc2c(c1)oc1cc3ccccc3c(=O)n12")
"NO"

Hello, I am checking results. What call was entered for `CN[C@@H](C)C(=O)N[C@H]1CN(S(=O)(=O)c2cccc(S(=O)(=O)N3CC[C@H]4CC[C@@H](C(=O)NC(c5ccccc5)c5ccccc5)N4C(=O)[C@@H](NC(=O)[C@H](C)NC)C3)c2)CC[C@H]2CC[C@@H](C(=O)NC(c3ccccc3)c3ccccc3)N2C1=O` ?
NO

Hello, I am checking results. What call was entered for `N#Cc1nc2c(S(=O)(=O)c3ccc(Cl)cc3)c(N)n(Nc3cccc(Cl)c3)c2nc1C#N` ?
YES

Hello, I am checking results. What call was entered for `Cc1cccc(NC(=O)c2sc3nc4c(cc3c2N)C(=O)CCC4)c1` ?
YES

Hello, I am checking results. What call was entered for `Cn1c([N+](=O)[O-])cnc1C=C1C(=O)c2ccccc2C1=O` ?
NO

Hello, I am checking results. What call was entered for `O=C1C=C[C@H](O)[C@@]2(CO)O[C@@H]12` ?
NO

Hello, I am checking results. What call was entered for `Cc1ccc2c(-c3ccnc(Nc4ccc5c(c4)OCCO5)n3)c(-c3ccc(C(F)(F)F)cc3)nn2n1` ?
NO

Hello, I am checking results. What call was entered for `FC(F)(F)Oc1cccc(-c2cc(NCCCCCCNc3cc(-c4cccc(OC(F)(F)F)c4)nc4ccc(N5CCCC5)cc34)c3cc(N4CCCC4)ccc3n2)c1` ?
NO

Hello, I am checking results. What call was entered for `O=C1c2cccc(Oc3ccccc3)c2C(=O)c2cccc(Oc3ccccc3)c21` ?
NO

Hello, I am checking results. What call was entered for `c1ccc(-c2[nH]ncc2-c2ccnc(-c3ccc(OCCn4ccnc4)cc3)c2)nc1` ?
NO

###

Test system: SK-MEL-28 melanoma
experimental.protocol: NCI tumour cell line growth inhibition, 48 h
quantity.name: TGI

Consider the reported TGI for these compounds:
>>> experimental_result("Cc1nc2ccccc2nc1CC(=O)C(=O)Nc1ccc(Cl)cc1Cl")
"> 100 µM"
>>> experimental_result("CC(C)(CO)CNC(=O)c1ccc2[nH]c(O)c(N=Nc3ccc(S(N)(=O)=O)cc3)c2c1")
"> 25 µM"
>>> experimental_result("CSC1=Nc2c(c(C)c(C)n2COC(CO)CO)C2=NC(=O)CN12")
"> 100 µM"
>>> experimental_result("Cc1cccc(NC(=O)c2sc3nc4c(cc3c2N)C(=O)CCC4)c1")
"> 62.3 µM"
>>> experimental_result("CC1(C)N=C(N)N=C(N)N1c1ccc(CCC(=O)Nc2ccc(S(=O)(=O)F)cc2)cc1")
"> 100 µM"

Measured TGI of `Cn1nccc1Nc1nccc(-c2ccn([C@H](CO)c3ccc(Cl)c(F)c3)c(=O)c2)n1` : > 100 µM

Measured TGI of `O=C(Nc1ccc(N=C=S)cc1Cl)c1cc(Br)cc(Br)c1O` : > 100 µM

Measured TGI of `CC1(C)OC[C@@H]([C@@]2(CO[Si](c3ccccc3)(c3ccccc3)C(C)(C)C)CC=CC(=O)O2)O1` : 48.3 µM

Measured TGI of `COc1ccc2nc(NC(=O)/C(C#N)=C/c3ccccc3)sc2c1` : > 100 µM
